Biological target: T1, IL-18 receptor (IL-18R) on HEK-Blue IL18R reporter cells (UniProt Q13478 19-541; O95256 20-599, limits assumed)
T1 sequence (looked up) 1: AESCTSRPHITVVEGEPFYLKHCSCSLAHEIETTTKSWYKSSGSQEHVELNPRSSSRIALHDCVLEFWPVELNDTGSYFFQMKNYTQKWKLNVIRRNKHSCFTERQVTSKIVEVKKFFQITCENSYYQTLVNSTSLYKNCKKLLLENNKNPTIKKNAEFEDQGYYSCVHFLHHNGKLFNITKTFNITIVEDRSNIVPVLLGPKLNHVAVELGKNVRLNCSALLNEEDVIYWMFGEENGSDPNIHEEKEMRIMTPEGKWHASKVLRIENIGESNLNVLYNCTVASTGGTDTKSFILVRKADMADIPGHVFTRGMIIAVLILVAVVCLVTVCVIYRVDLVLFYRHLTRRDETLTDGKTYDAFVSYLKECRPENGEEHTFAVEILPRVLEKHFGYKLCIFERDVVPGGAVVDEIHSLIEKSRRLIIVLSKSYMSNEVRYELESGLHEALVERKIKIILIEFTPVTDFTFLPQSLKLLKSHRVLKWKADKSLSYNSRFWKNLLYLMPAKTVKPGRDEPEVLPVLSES
T1 sequence (looked up) 2: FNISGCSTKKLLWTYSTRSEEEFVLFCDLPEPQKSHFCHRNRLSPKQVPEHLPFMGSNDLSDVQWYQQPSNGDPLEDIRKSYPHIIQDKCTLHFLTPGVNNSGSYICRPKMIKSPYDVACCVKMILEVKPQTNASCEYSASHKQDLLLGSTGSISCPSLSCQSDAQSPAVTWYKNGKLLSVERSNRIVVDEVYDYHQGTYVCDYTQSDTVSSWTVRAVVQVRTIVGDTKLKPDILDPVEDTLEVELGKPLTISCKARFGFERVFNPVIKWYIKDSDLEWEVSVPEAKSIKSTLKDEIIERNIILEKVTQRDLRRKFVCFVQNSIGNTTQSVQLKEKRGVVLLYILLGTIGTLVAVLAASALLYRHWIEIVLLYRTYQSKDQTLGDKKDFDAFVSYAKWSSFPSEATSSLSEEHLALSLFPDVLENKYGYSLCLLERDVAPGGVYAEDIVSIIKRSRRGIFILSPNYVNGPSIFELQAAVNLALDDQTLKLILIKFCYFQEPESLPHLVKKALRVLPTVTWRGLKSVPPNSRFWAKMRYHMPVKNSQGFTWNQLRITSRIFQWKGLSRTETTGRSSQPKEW
Assay: cell-based or functional assay
Hi there, I'd appreciate the recorded EC50 (read off the curve); SEAP reporter in HEK-Blue IL18R cells (OD 620 nM) for every entry that follows.

Binder	Result
IL-18 variant SEQ ID NO: 244 (N-terminal G, E6K, V11I, C38A, M51G, K53A, T63A, C76A, C127A) (ligand) GYFGKLKSKLSIIRNLNDQVLFIDQGNRPLFEDMTDSDARDNAPRTIFIISGYADSQPRGMAVAISVKCEKISTLSAENKIISFKEMNPPDNIKDTKSDIIFFQRSVPGHDNKMQFESSSYEGYFLAAEKERDLFKLILKKEDELGDRSIMFTVQNED	~10 pM
IL-18 variant SEQ ID NO: 59 (E6K, C38A, K53A) (ligand) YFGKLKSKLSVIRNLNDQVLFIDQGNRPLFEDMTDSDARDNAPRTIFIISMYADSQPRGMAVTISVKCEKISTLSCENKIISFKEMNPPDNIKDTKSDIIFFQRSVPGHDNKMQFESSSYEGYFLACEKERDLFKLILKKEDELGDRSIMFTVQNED	~0.3 pM

Give a short answer stating reported EC50 (read off the curve); SEAP reporter in HEK-Blue IL18R cells (OD 620 nM) for IL-18 variant SEQ ID NO: 239 (E6K, V11I, C38A, M51G, K53A, T63A, C76A, C127A) (ligand) YFGKLKSKLSIIRNLNDQVLFIDQGNRPLFEDMTDSDARDNAPRTIFIISGYADSQPRGMAVAISVKCEKISTLSAENKIISFKEMNPPDNIKDTKSDIIFFQRSVPGHDNKMQFESSSYEGYFLAAEKERDLFKLILKKEDELGDRSIMFTVQNED .
~0.1 pM
